Endpoint: IC50. System: FGFR3 (Homo sapiens, UniProt P22607). Items follow.
Sequence (P22607 23-806): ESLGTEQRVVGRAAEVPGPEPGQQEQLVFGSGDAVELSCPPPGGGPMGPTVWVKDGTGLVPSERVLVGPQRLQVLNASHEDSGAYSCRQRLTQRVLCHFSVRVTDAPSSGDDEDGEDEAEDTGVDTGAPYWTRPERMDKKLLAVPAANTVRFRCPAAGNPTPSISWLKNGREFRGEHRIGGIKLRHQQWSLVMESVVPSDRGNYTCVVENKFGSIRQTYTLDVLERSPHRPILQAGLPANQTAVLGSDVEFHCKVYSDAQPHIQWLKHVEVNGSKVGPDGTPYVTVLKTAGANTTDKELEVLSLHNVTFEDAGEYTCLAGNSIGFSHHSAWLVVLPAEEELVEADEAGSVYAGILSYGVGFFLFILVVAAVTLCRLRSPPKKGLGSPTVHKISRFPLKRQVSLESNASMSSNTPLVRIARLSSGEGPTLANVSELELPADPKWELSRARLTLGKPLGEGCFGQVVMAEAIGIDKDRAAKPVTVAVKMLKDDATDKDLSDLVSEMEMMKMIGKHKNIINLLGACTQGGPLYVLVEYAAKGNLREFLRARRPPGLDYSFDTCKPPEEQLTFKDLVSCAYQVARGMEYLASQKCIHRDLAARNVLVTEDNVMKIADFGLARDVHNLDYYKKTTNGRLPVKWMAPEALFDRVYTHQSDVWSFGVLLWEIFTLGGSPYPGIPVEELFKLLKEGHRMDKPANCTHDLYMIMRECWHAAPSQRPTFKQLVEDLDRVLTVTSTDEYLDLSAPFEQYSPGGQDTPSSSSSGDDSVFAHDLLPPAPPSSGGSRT

Look over these answered cases.
[[record]]
compound = "C=CC(=O)Nc1cccc(C)c1Nc1cc2c(cn1)cc(-c1cc(OC)cc(OC)c1)c(=O)n2CCCN1CCOCC1 [Compound 26]"
assayreadout = "IC50"
observed = "> 5 µM"

[[record]]
compound = "C=CC(=O)Nc1cccc(C)c1Nc1ncc2cc(-c3c(Cl)c(OC)cc(OC)c3Cl)ccc2n1 [BLU9931, reference compound]"
assayreadout = "IC50"
observed = "0.193 µM"

[[record]]
compound = "C=CC(=O)Nc1cccc(C)c1Nc1cc2c(cn1)cc(-c1c(Cl)c(OC)cc(OC)c1Cl)c(=O)n2CCCN1CCCCC1 [Compound 23]"
assayreadout = "IC50"
observed = "> 5 µM"

[[record]]
compound = "C=CC(=O)Nc1cccc(C)c1Nc1cc2c(cn1)cc(-c1cc(OC)cc(OC)c1)c(=O)n2CCCO [Compound 29]"
assayreadout = "IC50"
observed = "> 5 µM"


Param readout = IC50; param system = FGFR3 (Homo sapiens, UniProt P22607); param query = C=CC(=O)Nc1cccc(C)c1Nc1cc2c(cn1)cc(-c1c(Cl)c(OC)cc(OC)c1Cl)c(=O)n2CCCN1CCOCC1 [Compound 27] ; response: value
> 5 µM

---

pIC50: −log10 of the molar value.
Endpoint: pIC50. System: FGFR2 (Homo sapiens, UniProt P21802). Items follow.
Sequence (P21802 22-821): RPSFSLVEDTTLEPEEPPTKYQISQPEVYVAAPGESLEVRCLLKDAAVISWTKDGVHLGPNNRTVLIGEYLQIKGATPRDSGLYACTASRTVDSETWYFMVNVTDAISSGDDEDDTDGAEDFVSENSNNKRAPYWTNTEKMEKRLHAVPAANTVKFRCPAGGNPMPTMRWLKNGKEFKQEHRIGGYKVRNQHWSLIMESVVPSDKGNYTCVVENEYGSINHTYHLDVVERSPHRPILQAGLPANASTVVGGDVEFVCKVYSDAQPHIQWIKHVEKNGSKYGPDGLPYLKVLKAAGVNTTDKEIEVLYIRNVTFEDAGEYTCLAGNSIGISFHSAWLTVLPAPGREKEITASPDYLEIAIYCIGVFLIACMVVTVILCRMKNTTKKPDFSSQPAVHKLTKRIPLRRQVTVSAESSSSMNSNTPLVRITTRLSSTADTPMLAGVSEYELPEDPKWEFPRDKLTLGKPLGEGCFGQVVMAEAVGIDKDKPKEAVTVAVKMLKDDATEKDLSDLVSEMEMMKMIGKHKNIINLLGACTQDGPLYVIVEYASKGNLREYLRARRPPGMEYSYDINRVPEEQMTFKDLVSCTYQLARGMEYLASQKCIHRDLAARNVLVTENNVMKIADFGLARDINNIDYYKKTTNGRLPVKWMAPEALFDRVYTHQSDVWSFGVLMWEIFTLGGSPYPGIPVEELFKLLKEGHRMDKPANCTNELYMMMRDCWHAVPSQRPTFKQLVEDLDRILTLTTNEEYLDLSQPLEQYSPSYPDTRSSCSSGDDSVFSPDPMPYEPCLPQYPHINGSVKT

Look over these answered cases.
[[record]]
compound = "C=CC(=O)Nc1cccc(C)c1Nc1cc2c(cn1)cc(-c1c(Cl)c(OC)cc(OC)c1Cl)c(=O)n2CCCN1CCCCC1 [Compound 23]"
observed = "< 5.30"

[[record]]
compound = "C=CC(=O)Nc1cccc(C)c1Nc1cc2c(cn1)cc(-c1c(Cl)c(OC)cc(OC)c1Cl)c(=O)n2CCCO [Compound 30]"
observed = "< 5.30"

[[record]]
compound = "C=CC(=O)Nc1cccc(C)c1Nc1cc2c(cn1)cc(-c1cc(OC)cc(OC)c1)c(=O)n2CCCN1CCOCC1 [Compound 26]"
observed = "< 5.30"


Now take the following compound into account.
Need pIC50 of C=CC(=O)Nc1cccc(C)c1Nc1ncc2cc(-c3c(Cl)c(OC)cc(OC)c3Cl)ccc2n1 [BLU9931, reference compound] , thanks.
6.36

---

In this section, each of the compounds is paired with its reported IC50.
# testSystem: FGFR1 (Homo sapiens, UniProt P11362)
# Sequence (P11362 22-822): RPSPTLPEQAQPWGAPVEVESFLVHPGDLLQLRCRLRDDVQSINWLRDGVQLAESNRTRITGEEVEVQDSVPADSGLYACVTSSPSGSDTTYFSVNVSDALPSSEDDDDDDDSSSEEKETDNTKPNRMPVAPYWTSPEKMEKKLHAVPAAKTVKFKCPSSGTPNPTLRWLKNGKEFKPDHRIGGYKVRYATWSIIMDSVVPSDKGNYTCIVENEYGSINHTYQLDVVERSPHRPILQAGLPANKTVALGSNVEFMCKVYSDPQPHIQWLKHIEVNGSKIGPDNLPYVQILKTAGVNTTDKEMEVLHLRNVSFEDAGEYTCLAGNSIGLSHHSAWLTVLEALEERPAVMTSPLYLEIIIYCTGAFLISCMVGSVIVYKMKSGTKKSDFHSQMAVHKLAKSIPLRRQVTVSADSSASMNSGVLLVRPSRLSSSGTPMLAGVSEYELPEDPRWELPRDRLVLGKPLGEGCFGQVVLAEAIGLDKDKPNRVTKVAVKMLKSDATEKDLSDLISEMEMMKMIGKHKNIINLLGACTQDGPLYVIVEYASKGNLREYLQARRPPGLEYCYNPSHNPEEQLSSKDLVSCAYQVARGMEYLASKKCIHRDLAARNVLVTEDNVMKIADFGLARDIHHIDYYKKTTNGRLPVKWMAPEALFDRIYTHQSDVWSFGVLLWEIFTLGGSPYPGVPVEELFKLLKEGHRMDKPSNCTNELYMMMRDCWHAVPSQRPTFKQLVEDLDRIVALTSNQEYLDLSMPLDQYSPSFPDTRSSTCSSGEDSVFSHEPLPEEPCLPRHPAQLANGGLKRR
# assayProcedure: Mobility shift assay, FGFR1 kinase inhibition

Look over these answered cases.
[[record]]
testsmiles = "C=CC(=O)Nc1cccc(C)c1Nc1cc2c(cn1)cc(-c1cc(OC)cc(OC)c1)c(=O)n2CCCO"
observed = "> 5 µM"

[[record]]
testsmiles = "C=CC(=O)Nc1cccc(C)c1Nc1cc2c(cn1)cc(-c1cc(OC)cc(OC)c1)c(=O)n2CCCN1CCN(C)CC1"
observed = "> 5 µM"

[[record]]
testsmiles = "C=CC(=O)Nc1cccc(C)c1Nc1cc2c(cn1)cc(-c1c(Cl)c(OC)cc(OC)c1Cl)c(=O)n2CCCN1CCOCC1"
observed = "> 5 µM"


Now take the following compound into account.
Need IC50 of `C=CC(=O)Nc1cccc(C)c1Nc1cc2c(cn1)cc(-c1c(Cl)c(OC)cc(OC)c1Cl)c(=O)n2CCCN1CCN(C)CC1` , thanks.
> 5 µM
